# Test system: CD2F1 mice, L1210 leukemia sc, survival T/C
# experiment description: NCI In Vivo Anticancer Drug Screen. Data for tumor model L1210 Leukemia (subcutaneous) in CD2F1 (CDF1) mice
# condition label: endpoint: median survival time; dose: 180.0 mg/kg/injection; schedule: Q01DX Z (sc); vehicle: methylcellulose (MC); higher = longer survival
Toxic doses and inconclusive results are not listed.
readout label: T/C

[[record]]
input_smiles = "CCn1cnc2c(SC)ncnc21"
target_system = "CD2F1 mice, L1210 leukemia sc, survival T/C"
val = "100 % of control"

[[record]]
input_smiles = "Clc1ccc(CSc2ncnc3nc[nH]c23)cc1"
target_system = "CD2F1 mice, L1210 leukemia sc, survival T/C"
val = "100 % of control"

[[record]]
input_smiles = "C[C@]12C[C@H](O)[C@H]3[C@@H](CCC4=CC(=O)CC[C@@]43C)[C@@H]1CC[C@@H]2C(=O)CO"
target_system = "CD2F1 mice, L1210 leukemia sc, survival T/C"
val = "100 % of control"

[[record]]
input_smiles = "Oc1cc(CN(CCCl)CCCl)c(O)cc1CN(CCCl)CCCl"
target_system = "CD2F1 mice, L1210 leukemia sc, survival T/C"
val = "105 % of control"

[[record]]
input_smiles = "S=c1nc[nH]c2nc[nH]c12"
target_system = "CD2F1 mice, L1210 leukemia sc, survival T/C"
val = "118 % of control"

[[record]]
input_smiles = "CSc1nc2[nH]cnc(=S)c2[nH]1"
target_system = "CD2F1 mice, L1210 leukemia sc, survival T/C"
val = "100 % of control"

[[record]]
input_smiles = "O=C(CSc1ncnc2nc[nH]c12)c1ccccc1"
target_system = "CD2F1 mice, L1210 leukemia sc, survival T/C"
val = "100 % of control"

